# Tested Target: Pc DHFR (Pneumocystis carinii, UniProt P16184)
# Sequence (P16184 1-206): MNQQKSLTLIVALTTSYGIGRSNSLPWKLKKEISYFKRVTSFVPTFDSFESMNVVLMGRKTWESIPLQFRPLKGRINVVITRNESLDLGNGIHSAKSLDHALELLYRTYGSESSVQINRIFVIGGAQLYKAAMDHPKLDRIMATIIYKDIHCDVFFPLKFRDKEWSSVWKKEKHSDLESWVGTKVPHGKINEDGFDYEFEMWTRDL
# Method Notes: biochemical
Outcome Measure: IC50

* Nc1nc(N)c2c(CSc3ccc4ccccc4c3)coc2n1 [Compound 161] | 660 nM

Here is the next item to consider.
stdin: # query: IC50 of entry Nc1nc(N)c2c(CNc3ccc(C(=O)N[C@@H](CCC(=O)O)C(=O)O)cc3)c[nH]c2n1 [Compound 9]
stdout: 38 nM

* * *

# Test system: FaDu
# Method Notes: Growth inhibition of FaDu human squamous carcinoma cell line
# Assay type: cell-based
# Run Parameters: Homo sapiens, FaDu, read-out: Growth inhibition EC50, FaDu
Outcome Measure: EC50 (µM)
Write the value in µM as a bare number.

stdin: # query: EC50 of entry CN(Cc1cnc2nc(N)nc(N)c2n1)c1ccc(C(=O)N[C@@H](CCC(=O)O)C(=O)O)cc1 [MTX, methotrexate, reference compound]
stdout: 0.017

* * *

# Tested Target: UniProt:P0A884
# Sequence (P0A884 whole entry): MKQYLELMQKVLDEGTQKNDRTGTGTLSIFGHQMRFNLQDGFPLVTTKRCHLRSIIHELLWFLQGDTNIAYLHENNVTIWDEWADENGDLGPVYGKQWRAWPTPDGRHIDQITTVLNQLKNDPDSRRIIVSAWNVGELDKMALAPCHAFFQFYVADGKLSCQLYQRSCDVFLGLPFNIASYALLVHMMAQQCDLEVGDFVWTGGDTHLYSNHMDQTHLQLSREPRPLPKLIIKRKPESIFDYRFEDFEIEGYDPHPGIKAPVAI
# Method Notes: Inhibition of E. coli thymidylate synthase
# Format: biochemical
pIC50: −log10 of the molar value.
Outcome Measure: pIC50

* Nc1nc(O)c2c(CNc3cccc(Cl)c3)c[nH]c2n1 | < 3.74
* COc1cc(NCc2c[nH]c3nc(N)nc(O)c23)cc(OC)c1OC | < 3.54
* COc1cc(NCc2c[nH]c3nc(N)[nH]c(=O)c23)cc(OC)c1 | < 3.80
* COc1ccc(NCc2c[nH]c3nc(N)[nH]c(=O)c23)c(OC)c1 | < 3.80

stdin: # query: pIC50 of entry COc1ccc(OC)c(NCc2c[nH]c3nc(N)nc(O)c23)c1
stdout: < 3.80

* * *

# Tested Target: L. casei TS (Lacticaseibacillus casei, UniProt P00469)
# Sequence (P00469 whole entry): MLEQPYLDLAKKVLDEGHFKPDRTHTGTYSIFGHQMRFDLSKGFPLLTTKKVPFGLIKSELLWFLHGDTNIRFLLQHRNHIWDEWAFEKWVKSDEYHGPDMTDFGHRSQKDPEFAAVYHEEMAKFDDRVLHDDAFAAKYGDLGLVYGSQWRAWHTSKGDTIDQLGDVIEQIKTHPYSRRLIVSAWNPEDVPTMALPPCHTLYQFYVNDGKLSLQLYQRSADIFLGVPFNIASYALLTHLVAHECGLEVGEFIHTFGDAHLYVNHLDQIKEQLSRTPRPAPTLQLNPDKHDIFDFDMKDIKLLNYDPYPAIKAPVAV
Outcome Measure: IC50

stdin: # query: IC50 of entry Nc1nc2[nH]cc(CNc3ccc(C(=O)N[C@@H](CCC(=O)O)C(=O)O)cc3)c2c(=O)[nH]1
stdout: 46 µM

* * *

# Tested Target: Tg DHFR (Toxoplasma gondii, UniProt Q07422)
# Sequence (Q07422 1-610): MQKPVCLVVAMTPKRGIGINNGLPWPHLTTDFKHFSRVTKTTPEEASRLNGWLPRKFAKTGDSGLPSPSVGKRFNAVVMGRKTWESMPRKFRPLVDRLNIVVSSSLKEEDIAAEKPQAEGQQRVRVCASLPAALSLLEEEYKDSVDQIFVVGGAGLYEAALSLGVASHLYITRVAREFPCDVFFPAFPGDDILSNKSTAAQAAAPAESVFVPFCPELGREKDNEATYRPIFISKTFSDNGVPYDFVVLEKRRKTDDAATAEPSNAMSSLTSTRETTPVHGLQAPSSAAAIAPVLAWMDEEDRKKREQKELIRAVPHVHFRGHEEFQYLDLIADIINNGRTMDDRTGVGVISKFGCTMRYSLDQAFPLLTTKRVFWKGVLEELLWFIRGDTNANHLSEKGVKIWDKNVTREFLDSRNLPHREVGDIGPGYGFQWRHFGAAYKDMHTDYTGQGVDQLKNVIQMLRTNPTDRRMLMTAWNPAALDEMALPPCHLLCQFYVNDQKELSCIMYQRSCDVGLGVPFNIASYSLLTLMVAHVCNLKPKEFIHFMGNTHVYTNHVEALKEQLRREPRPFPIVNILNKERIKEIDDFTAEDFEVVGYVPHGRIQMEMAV
# Method Notes: biochemical
# Type: biochemical
# Run Parameters: Table 22; selectivity ratio
A collection of molecules and their measured rl/tg

Record excerpt, results attached:
• Nc1nc(O)c2c(CNc3cc(Cl)cc(Cl)c3)c[nH]c2n1 [Compound 413] = >21
• COc1cc(NCc2c[nH]c3nc(N)nc(O)c23)cc(OC)c1OC [Compound 411] = >3
• COc1ccc(NCc2c[nH]c3nc(N)[nH]c(=O)c23)c(OC)c1 [Compound 410] = >1.4
• Nc1nc2[nH]cc(CNc3ccc(Cl)cc3Cl)c2c(=O)[nH]1 [Compound 414] = >7

stdin: # query: rl/tg of entry COc1ccc(OC)c(NCc2c[nH]c3nc(N)nc(O)c23)c1 [Compound 408]
stdout: >21

stdin: # query: rl/tg of entry Nc1nc(O)c2c(CNc3cccc(Cl)c3)c[nH]c2n1 [Compound 415]
stdout: >7

stdin: # query: rl/tg of entry COc1cc(NCc2c[nH]c3nc(N)[nH]c(=O)c23)cc(OC)c1 [Compound 409]
stdout: >8

* * *

# Tested Target: Pc DHFR (Pneumocystis carinii)
# Method Notes: biochemical
# Run Parameters: Table 25; read-out: Inhibitor Concentrations (IC50) pcDHFR
Outcome Measure: IC50 (µM)
Write the value in µM as a bare number.

- Nc1nc(N)c2c(CNc3ccc4ccccc4c3)coc2n1 [Compound 163]: 41
- Nc1nc(N)c2c(COc3ccc4ccccc4c3)coc2n1 [Compound 164]: 14

Here is the next item to consider.
stdin: # query: IC50 of entry Nc1nc(N)c2c(CSc3ccc4ccccc4c3)coc2n1 [Compound 161]
stdout: 0.65

* * *

# Tested Target: RL DHFR (Rattus norvegicus, UniProt Q920D2)
# Construct: Toxoplasmosis gondii (Tg) and rat liver (RL); from tissue; host or cells: rat liver
# Method Notes: Inhibition of DHFR from rat liver
# Type: biochemical
# Run Parameters: Table 22; read-out: rlDHFR IC50
Outcome Measure: IC50

Record excerpt, results attached:
- COc1ccc(NCc2c[nH]c3nc(N)[nH]c(=O)c23)c(OC)c1 [Compound 410]: > 16 µM
- COc1ccc(OC)c(NCc2c[nH]c3nc(N)nc(O)c23)c1 [Compound 408]: > 47 µM

Here is the next item to consider.
stdin: # query: IC50 of entry COc1cc(NCc2c[nH]c3nc(N)[nH]c(=O)c23)cc(OC)c1 [Compound 409]
stdout: > 20 µM

* * *

A collection of molecules and their measured IC50
# Tested Target: Tg DHFR (Toxoplasma gondii, UniProt Q07422)
# Method Notes: biochemical
# Type: biochemical
# Run Parameters: Table 25; read-out: Inhibitor Concentrations (IC50) tgDHFR

• CN(Cc1coc2nc(N)nc(N)c12)c1ccc(Cl)c(Cl)c1 [Compound 171] = > 27 µM
• COc1cccc(NCc2coc3nc(N)nc(N)c23)c1 [Compound 175] = > 31.3 µM

stdin: # query: IC50 of entry Nc1nc(N)c2c(CNc3ccccc3Oc3ccccc3)coc2n1 [Compound 165]
stdout: > 12 µM

stdin: # query: IC50 of entry Nc1nc(N)c2c(COc3ccc4ccccc4c3)coc2n1 [Compound 164]
stdout: > 42 µM

* * *

A collection of compounds and their measured pIC50
# Tested Target: RL DHFR (Rattus norvegicus)
# Construct: Toxoplasmosis gondii (Tg) and rat liver (RL); from tissue; host or cells: rat liver
# Method Notes: Inhibition of DHFR from rat liver
# Assay type: biochemical
# Run Parameters: Table 16; read-out: RL DHFR IC50
pIC50: −log10 of the molar value.

- Nc1nc(N)c2c(CNc3ccccc3Oc3ccccc3)coc2n1: < 4.92
- CN(Cc1coc2nc(N)nc(N)c12)c1ccc(Cl)c(Cl)c1: < 4.57

Here is the next item to consider.
stdin: # query: pIC50 of entry COc1cccc(NCc2coc3nc(N)nc(N)c23)c1
stdout: < 4.50

* * *

A collection of molecules and their measured IC50
# Tested Target: RL DHFR (Rattus norvegicus, UniProt Q920D2)
# Construct: Toxoplasmosis gondii (Tg) and rat liver (RL); from tissue; host or cells: rat liver
# Sequence (Q920D2 1-187): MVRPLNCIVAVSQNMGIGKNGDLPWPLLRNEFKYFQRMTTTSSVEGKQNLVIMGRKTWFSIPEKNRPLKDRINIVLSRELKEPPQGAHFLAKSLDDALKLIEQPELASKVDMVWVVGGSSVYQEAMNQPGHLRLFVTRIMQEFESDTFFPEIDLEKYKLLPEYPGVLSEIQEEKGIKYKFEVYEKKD
# Method Notes: Inhibition of DHFR from rat liver
# Type: biochemical
# Run Parameters: Table 25; read-out: Inhibitor Concentrations (IC50) rlDHFR

Record excerpt, results attached:
• COc1cccc(NCc2coc3nc(N)nc(N)c23)c1 [Compound 175] = > 31.3 µM
• Nc1nc(N)c2c(CNc3ccccc3Oc3ccccc3)coc2n1 [Compound 165] = > 12 µM

Here is the next item to consider.
stdin: # query: IC50 of entry CN(Cc1coc2nc(N)nc(N)c12)c1ccc(Cl)c(Cl)c1 [Compound 171]
stdout: > 27 µM
